All values here come from ChEMBL document CHEMBL1148553.

Kindly supply the reported IC50 values for the records listed here.
- Test system: A-375
- EXPERIMENT: Cytotoxicity against human melanoma, A375 cells
- Format: functional, cell-based
Give bare numbers, in µM.

Go through the items and report each one's IC50.
1. COc1ccc2c(CN(C)C)cc3cc(OC)c(OC)cc3c2c1
2. COc1ccc2c3c(c4cc(OC)c(OC)cc4c2c1)C[C@H]1CCCCN1C3
3. COc1cc2cc(CN3CCCC[C@@H]3C)c3ccc(O)cc3c2cc1OC

OUT:
[7.1, 0.003, 11.2]

IN: # IC50 lookup, item COc1ccc2c(CN3CCCC[C@@H]3C)cc3cc(OC)c(OC)cc3c2c1
OUT: 8.96

----------
I'd appreciate it if you could supply IC50 values for the items below.
- System: BUD-8
- EXPERIMENT: Cytotoxicity against human fibroblast, BUD8 cells
- Assay type: functional, cell-based

Worked examples follow.
1. COc1cc2cc(CN3CCCC[C@@H]3C)c3ccc(O)cc3c2cc1OC; 18.2 µM
2. COc1ccc(/C=C(/CN2CCCC[C@H]2C)c2ccc(O)cc2)cc1OC; > 20 µM
3. COc1ccc(/C=C(/CN2CCCC[C@@H]2C)c2ccc(O)cc2)cc1OC; > 20 µM

Go through the items and report each one's IC50.
1. COc1ccc2c(CN(C)C)cc3cc(OC)c(OC)cc3c2c1
2. COc1ccc(/C(=C\c2ccc(OC)c(OC)c2)CN2CCCC[C@H]2C)cc1
3. COc1ccc2c(CN3CCCC[C@@H]3C)cc3cc(OC)c(OC)cc3c2c1

OUT:
1: > 20 µM; 2: > 20 µM; 3: > 20 µM

----------
Can you tell me inhibition at 10 µg/mL for the items I'm about to list?
- Organism: Rattus norvegicus
- EXPERIMENT: Inhibition of blood vessel growth in rat aorta at 10 ug/mL
- Type: functional
Remember to follow the number with its unit.

Past entries and their recorded results:
1) COc1ccc(/C(=C\c2ccc(OC)c(OC)c2)CN2CCCC[C@@H]2C)cc1; 43%
2) COc1ccc2c(CN3CCCC[C@H]3C)cc3cc(OC)c(OC)cc3c2c1; 100%
3) COc1ccc(/C=C(/CN2CCCC[C@@H]2C)c2ccc(O)cc2)cc1OC; 42%
4) COc1ccc(/C(=C\c2ccc(OC)c(OC)c2)CN2CCCC[C@H]2C)cc1; 62%
5) COc1ccc2ccc3cc(OC)c(OC)cc3c2c1; 42%

Give inhibition at 10 µg/mL for each listed item.
1. COc1cc2cc(CN3CCCC[C@H]3C)c3ccc(O)cc3c2cc1OC
2. COc1ccc2c(CN3CCCC[C@@H]3C)cc3cc(OC)c(OC)cc3c2c1
3. COc1ccc(/C=C(/CN2CCCC[C@H]2C)c2ccc(O)cc2)cc1OC
4. COc1cc2cc(CN3CCCC[C@@H]3C)c3ccc(O)cc3c2cc1OC
5. COc1ccc2c(CN(C)C)cc3cc(OC)c(OC)cc3c2c1

OUT:
85%
100%
65%
74%
100%

----------
So I've got a bunch of molecules here, and I need their IC50 values.
- System: MES-SA/Dx5
- EXPERIMENT: Cytotoxicity against human uterine sarcoma, MES-SA-Dx5 cells derived from MES-SA
- Format: functional, cell-based
Numbers only, in µM.

In the examples that follow, each entry is paired with its recorded IC50.
1) COc1ccc2c(CN(C)C)cc3cc(OC)c(OC)cc3c2c1; 16.8
2) COc1ccc2c3c(c4cc(OC)c(OC)cc4c2c1)C[C@H]1CCCCN1C3; 0.003
3) COc1ccc2c(CN3CCCC[C@H]3C)cc3cc(OC)c(OC)cc3c2c1; 8.46
4) COc1cc2cc(CN3CCCC[C@@H]3C)c3ccc(O)cc3c2cc1OC; 11.8

API: the following record is the query input.
IN: // lookup IC50 for COc1ccc2c(CN3CCCC[C@@H]3C)cc3cc(OC)c(OC)cc3c2c1
OUT: 11.7

----------
- Test system: A-375
- EXPERIMENT: Cytotoxicity against human melanoma, A375 cells
- Type: functional, cell-based
Provide the reported IC50 of each item.

1. COc1ccc2c(CN3CCCC[C@H]3C)cc3cc(OC)c(OC)cc3c2c1; 10.1 µM

For every item in the list below, what is its measured IC50?
1. COc1ccc2ccc3cc(OC)c(OC)cc3c2c1
2. COc1ccc(/C=C(/CN2CCCC[C@@H]2C)c2ccc(O)cc2)cc1OC

OUT:
1. > 20 µM
2. > 20 µM

Please give IC50, item by item, for the list that follows.
1. COc1ccc(/C(=C\c2ccc(OC)c(OC)c2)CN2CCCC[C@H]2C)cc1
2. COc1ccc(/C=C(/CN2CCCC[C@H]2C)c2ccc(O)cc2)cc1OC
3. COc1cc2cc(CN3CCCC[C@H]3C)c3ccc(O)cc3c2cc1OC

OUT:
["> 20 µM", "> 20 µM", "9.38 µM"]

----------
- Test system: HT-1376
- EXPERIMENT: Cytotoxicity against human bladder carcinoma, HT1376 cells
- Type: functional, cell-based
MEASURE NAME: IC50 (µM)
Give bare numbers, in µM.

Please review the entries below; each comes with its answer.
1) COc1ccc2c(CN3CCCC[C@@H]3C)cc3cc(OC)c(OC)cc3c2c1; 9.68
2) COc1ccc2c(CN(C)C)cc3cc(OC)c(OC)cc3c2c1; 7.88
3) COc1cc2cc(CN3CCCC[C@H]3C)c3ccc(O)cc3c2cc1OC; 6.04
4) COc1ccc2c(CN3CCCC[C@H]3C)cc3cc(OC)c(OC)cc3c2c1; 9.51
5) COc1cc2cc(CN3CCCC[C@@H]3C)c3ccc(O)cc3c2cc1OC; 8.31

IN: Request the reported IC50 associated with COc1ccc2c3c(c4cc(OC)c(OC)cc4c2c1)C[C@H]1CCCCN1C3
OUT: 0.004

----------
- Tested on: KHOS/NP
- EXPERIMENT: Cytotoxicity against human osteosarcoma, KHOS-NP cells
- Assay type: functional, cell-based
Field: pIC50. Provide a value for each of the molecules that follow.
Answers are plain numbers, as −log10 of the molar value.

Solved entries (count: 5):
1. COc1cc2cc(CN3CCCC[C@H]3C)c3ccc(O)cc3c2cc1OC; 4.87
2. COc1ccc2c(CN3CCCC[C@@H]3C)cc3cc(OC)c(OC)cc3c2c1; 4.91
3. COc1cc2cc(CN3CCCC[C@@H]3C)c3ccc(O)cc3c2cc1OC; 4.81
4. COc1ccc2c(CN3CCCC[C@H]3C)cc3cc(OC)c(OC)cc3c2c1; 4.85
5. COc1ccc2c3c(c4cc(OC)c(OC)cc4c2c1)C[C@H]1CCCCN1C3; 8.00

Let's switch to this molecule now.
IN: pIC50 lookup needed for COc1ccc2c(CN(C)C)cc3cc(OC)c(OC)cc3c2c1 , thanks.
OUT: 4.77

----------
- Tested on: PA-1
- EXPERIMENT: Cytotoxicity against human ovarian teratocarcinoma, PA1 cells
- Type: functional, cell-based
MEASURE NAME: IC50 (µM)
One number for each entry, in µM.

Example entries and their recorded answers appear below.
1. COc1ccc2c(CN3CCCC[C@H]3C)cc3cc(OC)c(OC)cc3c2c1; 7.27
2. COc1cc2cc(CN3CCCC[C@@H]3C)c3ccc(O)cc3c2cc1OC; 8
3. COc1ccc2c(CN3CCCC[C@@H]3C)cc3cc(OC)c(OC)cc3c2c1; 7.38

Below are 2 compounds. Give each one its IC50.
1. COc1ccc2c(CN(C)C)cc3cc(OC)c(OC)cc3c2c1
2. COc1ccc2c3c(c4cc(OC)c(OC)cc4c2c1)C[C@H]1CCCCN1C3 [CRYPTOPLEURINE]

OUT:
1. 4.16
2. 0.002

----------
- System: BUD-8
- EXPERIMENT: Cytotoxicity against human fibroblast, BUD8 cells
- Format: functional, cell-based
pIC50: −log10 of the molar value.
MEASURE NAME: pIC50

Some compounds with recorded pIC50:
1. COc1ccc(/C(=C\c2ccc(OC)c(OC)c2)CN2CCCC[C@@H]2C)cc1; < 4.70
2. COc1ccc2c(CN3CCCC[C@H]3C)cc3cc(OC)c(OC)cc3c2c1; < 4.70
3. COc1ccc2ccc3cc(OC)c(OC)cc3c2c1; < 4.70

IN: Quick one: pIC50 of COc1ccc2c3c(c4cc(OC)c(OC)cc4c2c1)C[C@H]1CCCCN1C3 [CRYPTOPLEURINE] ?
OUT: 8.22

----------
- Tested on: KHOS/NP
- EXPERIMENT: Cytotoxicity against human osteosarcoma, KHOS-NP cells
- Format: functional, cell-based
pIC50: −log10 of the molar value.
Field: pIC50. Provide a value for each of the compounds that follow.

Below, 4 compounds whose answers are already recorded.
1) COc1ccc(/C(=C\c2ccc(OC)c(OC)c2)CN2CCCC[C@H]2C)cc1; < 4.70
2) COc1ccc(/C=C(/CN2CCCC[C@H]2C)c2ccc(O)cc2)cc1OC; < 4.70
3) COc1ccc2ccc3cc(OC)c(OC)cc3c2c1; < 4.70
4) COc1ccc(/C(=C\c2ccc(OC)c(OC)c2)CN2CCCC[C@@H]2C)cc1; < 4.70

Lab note: next compound to report on.
IN: Any idea what its pIC50 is? The compound is COc1ccc(/C=C(/CN2CCCC[C@@H]2C)c2ccc(O)cc2)cc1OC
OUT: < 4.70
